Run Description: Agilent ZORBAX 300 SB-C18, 150 × 1 mm, 3.5 µm; A: water + 0.01% heptafluorobutyric acid; B: acetonitrile + 0.01% heptafluorobutyric acid; gradient (min/%B) 0/0 100/90
Conditions: stereoisomer not certain
For each of the compounds below, state its LC retention time.
Give bare numbers, in min.

The cases that follow already have their LC retention time on record.
>  <Compound>
CCOC(=O)c1ccc(NC(=O)C(c2ccccc2)c2ccccc2)cc1

>  <Value Reported>
16.9

$$$$
>  <Compound>
CNC(=S)Nc1c(C)cccc1C

>  <Value Reported>
9.89

$$$$
>  <Compound>
Cn1c(=O)c2ccccc2n(CCN)c1=O

>  <Value Reported>
7.65

$$$$
>  <Compound>
COC(=O)C1C(O)CCC2CN3CCc4c([nH]c5ccccc45)C3CC21 (stereo not drawn)

>  <Value Reported>
9.64

$$$$
>  <Compound>
Nc1ccc2cc[nH]c2c1

>  <Value Reported>
7.56

$$$$
>  <Compound>
CCCCNCC

>  <Value Reported>
7.1

$$$$
>  <Compound>
O=C(CNc1ccc2ccccc2c1)NN=Cc1ccccc1

>  <Value Reported>
14.8

$$$$
>  <Compound>
CCc1ccccc1NCC(=O)O

>  <Value Reported>
11.1

$$$$
>  <Compound>
O=C(NCCOc1ccccc1)Nc1cccc(NC(=O)NCCOc2ccccc2)c1

>  <Value Reported>
13.6

$$$$
>  <Compound>
NCc1cccc(CN)c1

>  <Value Reported>
7.04

$$$$

For each entry beneath this line, provide reported LC retention time.
1. Cc1cc(C)c2cccc(C)c2n1
2. CCc1ccc2c(c1)c(C=O)c(C)n2C
3. CC(=O)C1(O)CCC2C3CC(C)C4=CC(=O)CCC4(C)C3CCC21C (stereo not drawn)

1. 8.65
2. 12.9
3. 15.2
